meta.source: the supplement of paper PMC9170038

System: K4 kissing-loop RNA reporter;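 note: bound reporter read as fluorescence of individual clusters on recovered sequencing chips by microscopy, with normalized cluster intensities fitted with a binding model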
Assay: apparent KD of K4 kissing-loop reporter; higher = weaker reporter binding
Conditions: Eterna round: R107; input ligand: arginine 13.2 mM
Assign fulfilled whenever apparent KD of K4 kissing-loop reporter does not fall below 200 nM; assign not fulfilled whenever it does.

Task item: Quick check: does AUCUGUCAAGGACAACAUUACUGAGGUGAUACCAGCAUCGAAAGAUGCCCUUGGCAGCACCAACUUGCAGUGAUGUUGCAAGUAA [BrourdMod 10 - Jieux - Exclusion - Theophylline A] have apparent KD of K4 kissing-loop reporter greater than or equal to 200 nM?
Reply: fulfilled

Task item: apparent KD of K4 kissing-loop reporter >= 200 nM for GCCGAAUCGUUGGGCUCAGUGAUGUUGAUCCGAGGACCGGUACGGCCGCCACUCGAAUGGCAGUGACCACACUGGUAACGUUAAA [theeternabot_exclusion_KL_Trp_A_43] ?
Reply: fulfilled

Task item: Entry ACGGGCGGCUGAAGGAGCGGGCGGGCCCGAGUGAUGUUCGGGUGGGCCGUGAGGCCCGGAGCCCAGGUAGGUCGCGGUUCCGUCC [#2 Same State - Arginine B Attempt #21 (HarryS)] : is its apparent KD of K4 kissing-loop reporter no less than 200 nM?
Reply: not fulfilled

Task item: Reported apparent KD of K4 kissing-loop reporter reaches at least 200 nM for AUUUGUUUAUGUGAUACCAGACUUUGCAGUGAUGUUGCAUUUAUUUUAGAAUUUUAUUUAGUCCCUUGGCAGCACUAUGUAUUUA [JR_SSTheophyB_Sub007] ?
Reply: not fulfilled

Task item: Is apparent KD of K4 kissing-loop reporter for AACGGCCAGUCGGCCGCCACUCGAUGCAGUGAUGUUGCUAACUUUCUAAAAGAGUGAUGUUCAUGGAGGACCGGGACUAGUGUAA [#30 K4 Tryptophan B Exclusion] at or above 200 nM?
Reply: fulfilled
